Just for reference, ChEMBL document CHEMBL5678809 is where these values come from.

target: Mitogen-activated protein kinase kinase kinase kinase 4 (Homo sapiens); assay: Inhibition of MAP4K4 (unknown origin)
Sequence (O95819 whole entry): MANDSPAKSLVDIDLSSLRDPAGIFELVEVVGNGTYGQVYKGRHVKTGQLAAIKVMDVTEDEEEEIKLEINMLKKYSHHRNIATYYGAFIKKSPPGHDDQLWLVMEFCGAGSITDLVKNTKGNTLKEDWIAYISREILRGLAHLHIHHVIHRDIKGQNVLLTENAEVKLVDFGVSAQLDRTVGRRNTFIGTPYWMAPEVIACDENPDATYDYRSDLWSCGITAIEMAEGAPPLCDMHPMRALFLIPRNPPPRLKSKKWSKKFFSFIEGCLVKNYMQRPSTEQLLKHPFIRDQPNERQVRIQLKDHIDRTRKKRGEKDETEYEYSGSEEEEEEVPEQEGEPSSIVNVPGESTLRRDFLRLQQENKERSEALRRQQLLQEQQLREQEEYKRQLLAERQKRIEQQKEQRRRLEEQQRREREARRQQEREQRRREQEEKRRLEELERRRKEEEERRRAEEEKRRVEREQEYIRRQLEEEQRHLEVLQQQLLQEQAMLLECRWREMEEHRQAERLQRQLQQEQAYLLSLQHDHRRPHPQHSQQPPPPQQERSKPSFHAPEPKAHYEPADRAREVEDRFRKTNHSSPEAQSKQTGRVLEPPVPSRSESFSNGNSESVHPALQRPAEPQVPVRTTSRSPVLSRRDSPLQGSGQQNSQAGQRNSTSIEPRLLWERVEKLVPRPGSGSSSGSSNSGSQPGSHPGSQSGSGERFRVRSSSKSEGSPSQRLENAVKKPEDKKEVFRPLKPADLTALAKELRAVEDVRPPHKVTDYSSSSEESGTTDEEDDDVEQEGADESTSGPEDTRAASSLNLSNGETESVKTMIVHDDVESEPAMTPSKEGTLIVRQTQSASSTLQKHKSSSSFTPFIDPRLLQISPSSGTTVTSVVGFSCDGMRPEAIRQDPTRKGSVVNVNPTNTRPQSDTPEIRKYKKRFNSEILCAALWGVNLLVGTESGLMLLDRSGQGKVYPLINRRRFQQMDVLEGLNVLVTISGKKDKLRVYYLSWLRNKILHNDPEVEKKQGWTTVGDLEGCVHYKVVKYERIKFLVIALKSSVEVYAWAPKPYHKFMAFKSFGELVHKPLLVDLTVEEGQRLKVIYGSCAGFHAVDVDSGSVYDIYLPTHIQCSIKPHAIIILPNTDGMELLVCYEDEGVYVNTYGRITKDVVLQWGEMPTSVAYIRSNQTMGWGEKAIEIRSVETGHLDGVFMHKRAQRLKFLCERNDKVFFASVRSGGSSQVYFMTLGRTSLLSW
Observable: IC50

INPUT: Entry `O=C(Nc1nc2cccc(-c3ccc(CN4CCS(=O)(=O)CC4)cc3)n2n1)C1CC1` has what IC50?
OUTPUT: > 10 µM

---

assay: Half life in Sprague-Dawley rat at 5 mg/kg, po measured upto 24 hrs by LC-MS analysis; assay type: ADME, organism-based; conditions: in vivo
Observable: half-life (h)
Write down the numeric answer in h and omit the unit.

INPUT: Entry `O=C(Nc1nc2cccc(-c3ccc(CN4CCS(=O)(=O)CC4)cc3)n2n1)C1CC1` has what half-life?
OUTPUT: 3.9
